target: Human eIF4E (Homo sapiens)
Sequence (P06730 whole entry): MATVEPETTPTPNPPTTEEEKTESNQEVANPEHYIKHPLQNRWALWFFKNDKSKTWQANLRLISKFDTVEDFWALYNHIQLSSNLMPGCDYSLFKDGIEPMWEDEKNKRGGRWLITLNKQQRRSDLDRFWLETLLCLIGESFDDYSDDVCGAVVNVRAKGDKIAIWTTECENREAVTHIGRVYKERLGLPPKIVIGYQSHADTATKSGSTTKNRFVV
reported metric: Kd (µM)
The answer is to be given in µM; state only the numeric part.

Ask | Sample CN(C)c1nc2c(c(=O)[nH]1)[n+](C)cn2[C@@H]1O[C@H](COP(=O)(O)OP(=O)(O)OP(=O)(O)O)[C@@H](O)[C@H]1O — what was its Kd?
Reply | 4.56

====

Molecular target: Ascaris eIF4E-3 (49–236) (Ascaris suum)
Sequence (Q6PKX2 49-236): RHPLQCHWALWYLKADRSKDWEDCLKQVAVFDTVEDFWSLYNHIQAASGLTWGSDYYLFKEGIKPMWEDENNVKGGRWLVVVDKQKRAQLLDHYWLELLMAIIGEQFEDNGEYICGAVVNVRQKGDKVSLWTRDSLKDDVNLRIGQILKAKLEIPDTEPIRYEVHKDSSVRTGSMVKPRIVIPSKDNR
Each entry below carries its recorded pKd.
Keep in mind that pKd stands for -log10 of concentration in molar terms.

Examples with their reported pKd follow.
Ask | Sample C[n+]1cn([C@@H]2O[C@H](COP(=O)(O)OP(=O)(O)OP(=O)(O)O)[C@@H](O)[C@H]2O)c2nc(N)[nH]c(=O)c21 — what was its pKd?
Reply | 6.77

Ask | Sample CN(C)c1nc2c(c(=O)[nH]1)[n+](C)cn2[C@@H]1O[C@H](COP(=O)(O)OP(=O)(O)OP(=O)(O)O)[C@@H](O)[C@H]1O — what was its pKd?
Reply | 4.91

Further cases:
Ask | Sample C[n+]1cn([C@@H]2O[C@H](COP(=O)(O)OP(=O)(O)OP(=O)(O)OC[C@H]3O[C@@H](n4cnc5c(=O)[nH]c(N)nc54)[C@H](O)[C@@H]3O)[C@@H](O)[C@H]2O)c2nc(N)[nH]c(=O)c21 — what was its pKd?
Reply | 6.12
